Kindly supply the reported inhibition values for the records listed here.
target: Rac GTPase-activating protein 1 (Homo sapiens); experiment: blockers of MgcRacGAP-driven Rac1 GTP hydrolysis – biochemical, ADP Hunter fluorescence, primary and confirmatory, confirmation (AID 624330); conditions: MgcRacGAP-stimulated Rac1 GTP hydrolysis, at 30 µM, stronger effect = higher value, GST-tagged Rac1 F28L mutant substrate;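 also: fluorescence reports GDP produced by GAP-driven GTP hydrolysis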
In all, about 340,000 compounds went through this assay and about 2,100 (0.62%) were called active. These entries were drawn from the full list. Results with a measured potency or affinity are listed apart.
# output: bare number, implied unit %

What measured inhibition is associated with `COc1ccccc1NCc1ccc([N+](=O)[O-])s1` on Rac GTPase-activating protein 1 (Homo sapiens)?
15.3

What measured inhibition is associated with `COc1cccc(/C=C/C(=O)OCC(=O)Nc2nnc(-c3ccccc3)o2)c1` on Rac GTPase-activating protein 1 (Homo sapiens)?
4.25

What measured inhibition is associated with `O=S(=O)(/N=C(/Nc1nccs1)c1ccc(F)cc1)c1ccccc1` on Rac GTPase-activating protein 1 (Homo sapiens)?
-7.34

What measured inhibition is associated with `Cc1ccc(NC(=O)c2cc(N(C)C)ccc2[P+](=O)O)cc1` on Rac GTPase-activating protein 1 (Homo sapiens)?
4.54

What measured inhibition is associated with `NC(=S)Nc1ccc(S(=O)(=O)c2ccc(NC(N)=S)cc2)cc1` on Rac GTPase-activating protein 1 (Homo sapiens)?
10.8

What measured inhibition is associated with `C=C(C)CSc1nc2sc3c(c2c(=O)n1-c1ccccc1)CCN(C)C3` on Rac GTPase-activating protein 1 (Homo sapiens)?
11.6

What measured inhibition is associated with `O=C(/C=C/c1ccccc1)NC(=O)c1ccccc1O` on Rac GTPase-activating protein 1 (Homo sapiens)?
11.1

What measured inhibition is associated with `COc1ccccc1OCCC(=O)Nc1ccc2c(c1)OCO2` on Rac GTPase-activating protein 1 (Homo sapiens)?
2.43

What measured inhibition is associated with `CC(=O)Nc1ccc(NC(=O)C(=O)c2cn(CC(=O)N3CCCC3)c3ccccc23)cc1` on Rac GTPase-activating protein 1 (Homo sapiens)?
4.85

What measured inhibition is associated with O=C(Nn1cnnc1)c1ccc(OC(F)(F)C(F)C(F)(F)F)cc1 (stereo not drawn) on Rac GTPase-activating protein 1 (Homo sapiens)?
7.79

What measured inhibition is associated with `O=C(/C=C/c1ccc(Br)cc1)NC(=O)c1ccccc1O` on Rac GTPase-activating protein 1 (Homo sapiens)?
0.42

What measured inhibition is associated with `Cc1ccc(NC2=C/C(=N/S(=O)(=O)c3cccs3)c3ccccc3C2=O)cc1` on Rac GTPase-activating protein 1 (Homo sapiens)?
12.6

What measured inhibition is associated with `COc1ccc(NCc2ccc([N+](=O)[O-])s2)cc1` on Rac GTPase-activating protein 1 (Homo sapiens)?
23.5

What measured inhibition is associated with Cc1cc2c(cc1S(=O)(=O)N1CC(C)CC(C)C1)OCC(=O)N2 (stereo not drawn) on Rac GTPase-activating protein 1 (Homo sapiens)?
1.63

What measured inhibition is associated with `O=C1C(Nc2ccccc2)=C/C(=N/S(=O)(=O)c2cccs2)c2ccccc21` on Rac GTPase-activating protein 1 (Homo sapiens)?
13.2

What measured inhibition is associated with `Cc1nnc(SCc2ccccc2)n1N` on Rac GTPase-activating protein 1 (Homo sapiens)?
-3.52

What measured inhibition is associated with `CN(CCO)c1cc(NCCCN2CCC(Cc3ccccc3)CC2)c2nonc2c1[N+](=O)[O-]` on Rac GTPase-activating protein 1 (Homo sapiens)?
4.68

What measured inhibition is associated with CCCN1CCN(CCCNC(=O)C(CC)n2nc(C)n3c(cc4occc43)c2=O)CC1 (stereo not drawn) on Rac GTPase-activating protein 1 (Homo sapiens)?
10.2

What measured inhibition is associated with O=S(=O)(N/N=C1\CC(c2ccccc2)Oc2ccccc21)c1ccccc1 (stereo not drawn) on Rac GTPase-activating protein 1 (Homo sapiens)?
-7.41

What measured inhibition is associated with `CCN(CC)c1ccc(NC2=C(Cl)C(=O)c3ccccc3C2=O)cc1` on Rac GTPase-activating protein 1 (Homo sapiens)?
28.6

What measured inhibition is associated with `Cc1ccc(C(=O)N2CCN(S(=O)(=O)c3ccc(C)c([N+](=O)[O-])c3)C2)cc1` on Rac GTPase-activating protein 1 (Homo sapiens)?
6.42

What measured inhibition is associated with `N#CCC(=O)Nn1c(=S)[nH]c2ccccc2c1=O` on Rac GTPase-activating protein 1 (Homo sapiens)?
3.15

What measured inhibition is associated with `CS(=O)(=O)Nc1ccc(C(=O)Nc2ccccc2Sc2ccccc2)cc1` on Rac GTPase-activating protein 1 (Homo sapiens)?
9.8

====

target: Rac GTPase-activating protein 1 (Homo sapiens) (UniProt Q9H0H5); assay: blockers of MgcRacGAP-driven Rac1 GTP hydrolysis – biochemical, ADP Hunter fluorescence, primary and confirmatory, confirmation (AID 624330); conditions: MgcRacGAP-stimulated Rac1 GTP hydrolysis, at 30 µM, stronger effect = higher value, GST-tagged Rac1 F28L mutant substrate;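 also: fluorescence reports GDP produced by GAP-driven GTP hydrolysis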
Sequence (Q9H0H5 whole entry, looked up): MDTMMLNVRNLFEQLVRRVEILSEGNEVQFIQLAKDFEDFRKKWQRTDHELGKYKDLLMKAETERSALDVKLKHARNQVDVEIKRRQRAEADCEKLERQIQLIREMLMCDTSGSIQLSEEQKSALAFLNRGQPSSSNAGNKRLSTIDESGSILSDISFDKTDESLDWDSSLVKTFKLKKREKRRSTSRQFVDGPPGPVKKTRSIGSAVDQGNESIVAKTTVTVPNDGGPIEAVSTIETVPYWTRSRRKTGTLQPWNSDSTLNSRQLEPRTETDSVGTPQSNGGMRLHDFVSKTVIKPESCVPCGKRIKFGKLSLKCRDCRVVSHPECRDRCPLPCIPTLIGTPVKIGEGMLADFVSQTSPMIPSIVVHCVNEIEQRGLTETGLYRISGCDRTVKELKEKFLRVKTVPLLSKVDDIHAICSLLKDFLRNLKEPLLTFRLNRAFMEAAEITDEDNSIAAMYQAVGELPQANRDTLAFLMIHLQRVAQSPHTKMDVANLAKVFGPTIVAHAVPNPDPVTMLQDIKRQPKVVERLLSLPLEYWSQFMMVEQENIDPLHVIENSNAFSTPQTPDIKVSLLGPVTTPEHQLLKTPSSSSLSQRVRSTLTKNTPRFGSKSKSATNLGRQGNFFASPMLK
Hit rate of the full screen: of about 340,000 compounds, about 2,100 (0.62%) were called active. Only a sample is shown. Potency and affinity values are given separately.
Kindly supply the reported inhibition values for the records listed here.
# output: bare number, implied unit %

What measured inhibition is associated with `Nc1ccccc1N1CCN(C(=O)c2ccccc2)CC1` on Rac GTPase-activating protein 1 (Homo sapiens) (UniProt Q9H0H5)?
12.8

What measured inhibition is associated with `COc1ccc(NC(=O)c2c(NC(=O)CNCc3ccco3)sc3c2CCC3)cc1` on Rac GTPase-activating protein 1 (Homo sapiens) (UniProt Q9H0H5)?
15.6

What measured inhibition is associated with `O=c1[nH]c2ccccc2cc1CN(Cc1ccco1)S(=O)(=O)c1ccccc1` on Rac GTPase-activating protein 1 (Homo sapiens) (UniProt Q9H0H5)?
5.99

What measured inhibition is associated with CC(C)CC(NC(=O)C(Cc1ccc(OCc2ccccc2)cc1)NC(=O)OC(C)(C)C)C(N)=O (stereo not drawn) on Rac GTPase-activating protein 1 (Homo sapiens) (UniProt Q9H0H5)?
10.6

What measured inhibition is associated with `C/C(=N\NC(=O)c1ccc(Cl)cc1)c1ccccn1` on Rac GTPase-activating protein 1 (Homo sapiens) (UniProt Q9H0H5)?
-1.19

What measured inhibition is associated with `CN1OC[C@@H]2CN(C(=O)CCc3ccccc3)[C@H](c3cccc(-c4ccc(C#N)cc4)c3)C[C@@H]21` on Rac GTPase-activating protein 1 (Homo sapiens) (UniProt Q9H0H5)?
4.81

What measured inhibition is associated with `Cc1ccc(Nc2nc(N)c([N+](=O)[O-])c(NCc3ccco3)n2)cc1C` on Rac GTPase-activating protein 1 (Homo sapiens) (UniProt Q9H0H5)?
2.81

What measured inhibition is associated with `O=C(O)CCNc1ccc2c(c1)OCCO2` on Rac GTPase-activating protein 1 (Homo sapiens) (UniProt Q9H0H5)?
19.4

What measured inhibition is associated with CC(C)C1N=C2c3ccccc3N=C(SCC#N)N2C1=O (stereo not drawn) on Rac GTPase-activating protein 1 (Homo sapiens) (UniProt Q9H0H5)?
10.5

What measured inhibition is associated with `Nc1cccc(-c2nc3ccccc3[nH]2)c1` on Rac GTPase-activating protein 1 (Homo sapiens) (UniProt Q9H0H5)?
8.22

What measured inhibition is associated with `COC(=O)c1cc(OC)c(OC)cc1NC(=O)c1cc(OC)cc(OC)c1` on Rac GTPase-activating protein 1 (Homo sapiens) (UniProt Q9H0H5)?
-0.7

What measured inhibition is associated with Cc1cc(C)n(CC(=O)N2N=C(C(F)F)CC2(O)C(F)F)n1 (stereo not drawn) on Rac GTPase-activating protein 1 (Homo sapiens) (UniProt Q9H0H5)?
5.91

What measured inhibition is associated with `CN(C)c1ccc2nsnc2c1[N+](=O)[O-]` on Rac GTPase-activating protein 1 (Homo sapiens) (UniProt Q9H0H5)?
7.42

What measured inhibition is associated with `Cc1ccc2c(c1)N(C(=O)CCC(=O)N1CCN(c3ccccc3)CC1)CCO2` on Rac GTPase-activating protein 1 (Homo sapiens) (UniProt Q9H0H5)?
11.2

What measured inhibition is associated with CC1(C)CC(NC(=O)C2CCC(=O)N(Cc3ccccc3F)C2)CC(C)(C)C1 (stereo not drawn) on Rac GTPase-activating protein 1 (Homo sapiens) (UniProt Q9H0H5)?
6.51

What measured inhibition is associated with CCOC(=O)C(Cc1c(F)cccc1Cl)c1ccnc2nc(N)nn12 (stereo not drawn) on Rac GTPase-activating protein 1 (Homo sapiens) (UniProt Q9H0H5)?
7.53

What measured inhibition is associated with CCOC(=O)C1=C(c2ccccc2)Nc2ncnn2C1c1ccc(O)cc1 (stereo not drawn) on Rac GTPase-activating protein 1 (Homo sapiens) (UniProt Q9H0H5)?
5.08

What measured inhibition is associated with `Cc1cc(C(=O)NNC(=O)C2CCCC2)c(C)o1` on Rac GTPase-activating protein 1 (Homo sapiens) (UniProt Q9H0H5)?
4.19

What measured inhibition is associated with `O=c1cc(-c2ccccc2[N+](=O)[O-])oc2ccccc12` on Rac GTPase-activating protein 1 (Homo sapiens) (UniProt Q9H0H5)?
4.61

What measured inhibition is associated with `CC(C)n1c(SCC(=O)Nc2nncs2)nnc1C1CC1` on Rac GTPase-activating protein 1 (Homo sapiens) (UniProt Q9H0H5)?
4.43

What measured inhibition is associated with `O=[N+]([O-])c1ccc(O)c(CNCc2ccccc2)c1` on Rac GTPase-activating protein 1 (Homo sapiens) (UniProt Q9H0H5)?
5.59

What measured inhibition is associated with `Cc1ccc(S(=O)(=O)NCc2ccco2)cc1C` on Rac GTPase-activating protein 1 (Homo sapiens) (UniProt Q9H0H5)?
0.0567

What measured inhibition is associated with `CCOC(=O)CSc1nc2c(sc(=S)n2-c2ccccc2OC)c(=O)n1-c1ccccc1OC` on Rac GTPase-activating protein 1 (Homo sapiens) (UniProt Q9H0H5)?
3.56
